- System: OVCAR-8 ovarian
- ASSAY REMARKS: NCI-60 one-dose screen, 48 h
- CONDITION NOTES: 10 µM unless noted
Compounds without any hit were thinned out: in the full panel of roughly 83,000, 20% have a hit. The source made the active and inactive calls. Rule for the calls: active = growth percent below 10; inactive = the rest.
Please answer using one outcome listed in true = active, false = inactive

{"columns": ["SMILES REPR", "CLASSIFICATION"],
 "data": [
  ["CCc1[nH]nc(-c2ccc(OC)cc2)c1-c1ccccc1OCCN(CC)CC", "false"],
  ["O=C(Nc1ccc(Cl)cc1Cl)Nc1ccc(-c2cccnc2)cc1N1CCC(CO)CC1", "false"],
  ["O=C(Nc1ccc(C2=NCCCN2)cc1)Nc1ccc(C2=NCCCN2)cc1", "false"],
  ["Oc1[nH]c2ccc(Cl)cc2c1/C=c1/ccc2c(c1)N=C(c1ccc(C(F)(F)F)cc1)N=2", "false"],
  ["C[C@]12CC[C@@H]3c4ccc(O)cc4CC[C@H]3[C@@H]1CC[C@@H]2NS(=O)(=O)c1cccc(Br)c1", "false"]
]}

Task: Hi, sorry to bother you, what did the test record for CCCCCCCC/C=C\CCCCCCCCOc1ccccc1CC(=O)NCC[N+]1(C)CCCC1 ?
Output: false

Task: Please indicate how the test categorized CC(C)c1nc(N(C)S(C)(=O)=O)nc(-c2ccc(F)cc2)c1/C=C/[C@@H](O)C[C@@H](O)CC(=O)O .
Output: false

Task: State the result this test recorded for Cc1cc(=O)n2n1-c1ccc(Cl)cc1NC(=O)C2 .
Output: false

Task: For O=C(Oc1ccc[nH]c1=O)c1cccc(Cl)c1 , what call appears in the results of this test?
Output: false

Task: Assay result, entry O=C1NCN(CCO)CN1 — outcome?
Output: false

Task: Status in this test for COc1ccc(/C=C2\NC(=S)NC2=O)cc1 ?
Output: false

Task: // return assay outcome for Cc1ccsc1/C=C/C1=NCCCN1C
Output: false

Task: Please indicate how the test categorized c1ccc(Nc2nnc(-c3cc(-c4cccnc4)n(-c4ccccc4)n3)s2)cc1 .
Output: false

Task: Which outcome was assigned to CC1(C)OC(=O)C(=Cc2ccccc2Br)C(=O)O1 in this test?
Output: false

Task: // return assay outcome for O=C(NCCCO)c1cc(Cl)ccc1O
Output: false

Task: In this assay, the call recorded for O=C1C(Cl)=C(N=Nc2c(Cl)c(O)c3ccccc3c2O)C(=O)c2ccccc21 was what?
Output: false

Task: Lab log entry: CC/C(=C\c1ccc(N(C)C)cc1)c1nc2ccccc2c(=O)[nH]1 — outcome as called in the assay?
Output: false

Task: Would you mind telling me which call this test gave COc1ccc(Nc2ccnc(NCCCNc3ccnc4cc(Cl)ccc34)n2)cc1 ?
Output: true

Task: Please let me know the test result on file for COc1ccc2c(c1)nc(N)c1c3cc(OC)c(OC)cc3cn21 .
Output: false

Task: In this assay, the call recorded for CCCCCCCC/C=C/CCCCCCCC1=NC(C)(C)CN1CCO was what?
Output: false

Task: Kindly provide the recorded test outcome for the following molecule: O=C(OC[C@H]1O[C@H](OC(=O)c2cc(O)c(O)c(OC(=O)c3cc(O)c(O)c(O)c3)c2)[C@H](OC(=O)c2cc(O)c(O)c(OC(=O)c3cc(O)c(O)c(O)c3)c2)[C@@H](OC(=O)c2cc(O)c(O)c(OC(=O)c3cc(O)c(O)c(O)c3)c2)[C@@H]1OC(=O)c1cc(O)c(O)c(OC(=O)c2cc(O)c(O)c(O)c2)c1)c1cc(O)c(O)c(OC(=O)c2cc(O)c(O)c(O)c2)c1
Output: false

Task: What call does the record list for O=[P@@]1(c2ccccc2)O[C@H](COCc2ccccc2)[C@@H](OCc2ccccc2)[C@H](OCc2ccccc2)[C@H]1NCc1ccccc1 ?
Output: false
